- system_tested: human TLR8 (Homo sapiens)
- Sequence (Q9NR97 27-1041): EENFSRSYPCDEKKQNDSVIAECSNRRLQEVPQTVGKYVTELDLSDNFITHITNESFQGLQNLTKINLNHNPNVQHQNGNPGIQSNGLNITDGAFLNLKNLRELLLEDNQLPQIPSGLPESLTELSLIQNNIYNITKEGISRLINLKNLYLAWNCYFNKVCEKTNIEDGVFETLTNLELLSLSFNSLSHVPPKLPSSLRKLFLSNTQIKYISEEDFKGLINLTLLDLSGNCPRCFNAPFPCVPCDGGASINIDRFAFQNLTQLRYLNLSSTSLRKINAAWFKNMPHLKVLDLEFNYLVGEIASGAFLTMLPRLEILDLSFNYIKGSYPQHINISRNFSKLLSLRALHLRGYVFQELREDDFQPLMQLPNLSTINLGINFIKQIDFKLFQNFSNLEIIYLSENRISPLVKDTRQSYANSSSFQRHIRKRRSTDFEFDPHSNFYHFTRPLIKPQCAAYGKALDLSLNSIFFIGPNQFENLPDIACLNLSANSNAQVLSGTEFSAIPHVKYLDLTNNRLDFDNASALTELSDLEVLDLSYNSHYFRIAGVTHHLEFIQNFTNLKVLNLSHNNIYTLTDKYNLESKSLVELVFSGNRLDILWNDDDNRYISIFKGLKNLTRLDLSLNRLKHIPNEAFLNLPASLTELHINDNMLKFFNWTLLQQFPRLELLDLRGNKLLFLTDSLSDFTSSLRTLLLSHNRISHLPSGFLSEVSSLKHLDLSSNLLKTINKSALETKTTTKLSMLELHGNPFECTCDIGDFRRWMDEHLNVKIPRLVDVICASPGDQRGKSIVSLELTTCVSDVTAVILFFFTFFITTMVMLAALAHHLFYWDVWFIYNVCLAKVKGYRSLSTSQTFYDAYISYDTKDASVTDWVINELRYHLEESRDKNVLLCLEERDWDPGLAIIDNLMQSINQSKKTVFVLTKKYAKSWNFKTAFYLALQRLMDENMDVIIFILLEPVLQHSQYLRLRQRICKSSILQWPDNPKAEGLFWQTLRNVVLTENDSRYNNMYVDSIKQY
- test_summary: HEK Reporter Assay, HEK293 NFKB reporter cells expressing human TLR8
- assay_setup: read-out: EC50 against TLR8
I'd appreciate it if you could supply pEC50 values for the items below.
Lab note — pEC50 values are minus log10 of concentrations in M.

In plain terms, CCCN(CCC)C(=O)C1=Cc2ccncc2N=C(N)C1 has a documented pEC50 of 5.26

Entry CCCN(OCCNC(=O)OC(C)(C)C)C(=O)C1=Cc2ccncc2N=C(N)C1 ; pEC50 = 6.71

###

- test_summary: hydrolysis of the amidine group to lactam in PBS buffer
- Type: physicochemical
- assay_setup: PBS pH 7.4, 37° C., read-out: t ½ in PBS (pH 7.4) at 37° C. (converted)
measurement_kind: half-life (days)
Response body: numeric value in days, unit text excluded.

Reported half-life for CCCN(OCC)C(=O)C1=Cc2cnc(S(=O)(=O)NCCOC)cc2N=C(N)C1 was 100

For this compound ( CCCN(OCCNC(=O)OC(C)(C)C)C(=O)C1=Cc2cnc(C(=O)O)cc2N=C(N)C1 ), measured half-life is 20

Entry CCCN(OCCNC(=O)OC(C)(C)C)C(=O)C1=Cc2cnc(S(=O)(=O)O)cc2N=C(N)C1 ; half-life = 70

###

- test_summary: hydrolysis of the amidine group to lactam in PBS buffer
- Format: physicochemical
- assay_setup: PBS (pH 7.4) at 37° C., read-out: half-lives (t½), hydrolytic degradation (converted)
- Procedure: The hydrolytic degradation rates of benzazepine and 7-azabenzazepine compounds were directly compared in PBS (pH 7.4) at 37° C. to mimic in vivo effects and in formulation buffer to simulate storage and lifetime effects. […] The half-lives (t½) of aza-benzazepine compounds azaBa-6 and azaBz-8 were 30 days and 40 days, respectively. […] The amount of lactam is normalized for each sample at the start (to) for easier rate comparisons. […]
measurement_kind: half-life (days)
Record the value in days, omitting the unit from your answer.

Memo: CCCN(OCC)C(=O)C1=Cc2ccc(C(=O)NCCOC)cc2N=C(N)C1 [CBz-7, reference compound] , reported half-life: 8

Quick note, half-life for CCCN(OCC)C(=O)C1=Cc2cnc(-c3cnc(CN)nc3)cc2N=C(N)C1 landed at 30

Record CCCN(OCC)C(=O)C1=Cc2ccc(-c3cnc(CN)nc3)cc2N=C(N)C1 [CBz-2, reference compound] . Reported half-life: 6

Input CCCN(OCC)C(=O)C1=Cc2cnc(S(=O)(=O)N(C)CCOC)cc2N=C(N)C1 . Output half-life: 40
